Some substances, each annotated with its measured % cleavage MMP-9 t = 120 min.
Target: MMP-9 (Homo sapiens)
Construct: purchased SIGMA PF024
Sequence (P14780 94-707): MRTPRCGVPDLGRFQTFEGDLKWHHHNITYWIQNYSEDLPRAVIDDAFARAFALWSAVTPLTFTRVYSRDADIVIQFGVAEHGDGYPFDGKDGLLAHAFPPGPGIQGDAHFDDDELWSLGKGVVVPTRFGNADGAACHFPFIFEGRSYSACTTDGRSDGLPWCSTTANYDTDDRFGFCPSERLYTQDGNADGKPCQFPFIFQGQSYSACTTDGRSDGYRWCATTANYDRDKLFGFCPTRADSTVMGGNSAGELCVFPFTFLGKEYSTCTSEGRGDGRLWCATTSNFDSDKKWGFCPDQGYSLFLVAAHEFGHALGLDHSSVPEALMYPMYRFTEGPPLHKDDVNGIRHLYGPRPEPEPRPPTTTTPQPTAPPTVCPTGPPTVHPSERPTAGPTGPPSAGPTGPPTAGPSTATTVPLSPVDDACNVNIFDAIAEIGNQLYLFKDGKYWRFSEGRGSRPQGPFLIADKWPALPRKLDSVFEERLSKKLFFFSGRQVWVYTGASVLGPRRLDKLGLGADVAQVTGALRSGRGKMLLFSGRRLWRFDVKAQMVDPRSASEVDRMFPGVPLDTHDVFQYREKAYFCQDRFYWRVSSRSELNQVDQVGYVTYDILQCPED
Experiment: FRET peptide cleavage efficiency with MMP-9 (standard pH 7.5; also pH 6.5)
Assay type: biochemical
Settings: t = 120 min; standard conditions (Table 8)
Square brackets hold non-standard residues; d marks the D form. Ends that are not written are not given here. Tyr(3-NO2) = N[C@@H](Cc1ccc(O)c([N+](=O)[O-])c1)C(=O)O; Nle = CCCC[C@H](N)C(=O)O; 2Abz = Nc1ccccc1C(=O)O
endpoint label: % cleavage MMP-9 t = 120 min (%)

* RQRKVANLVG ([2Abz]RQRKVANLVG[Tyr(3-NO2)]-NH2) [LNK032] | 100
* RGRRVANLVG ([2Abz]RGRRVANLVG[Tyr(3-NO2)]-NH2) [LNK033] | 100
* RGRKPQPLVD ([2Abz]RGRKPQPLVD[Tyr(3-NO2)]-NH2) [LNK039] | 94
* RGRKSPY-Nle-LQG ([2Abz]RGRKSPY[Nle]LQG[Tyr(3-NO2)]-NH2) [LNK038] | 97
* SGRVQPLVD (not fully specified (N-terminus, C-terminus)) [LNK047] | 4
* SGRVAPYMLQG ([2Abz]SGRVAPYMLQG[Tyr(3-NO2)]-NH2) [LNK042] | 100
* SGRVYMLQG ([2Abz]SGRVYMLQG[Tyr(3-NO2)]-NH2) [LNK044] | 2
* SGRVAPY-Nle-LQG ([2Abz]SGRVAPY[Nle]LQG[Tyr(3-NO2)]-NH2) [LNK043] | 100
* RGRRGP ([2Abz]RGRRGP[Tyr(3-NO2)]-NH2) [LNK048] | 0
* RGRKSPYMLQG ([2Abz]RGRKSPYMLQG[Tyr(3-NO2)]-NH2) [LNK037] | 100
* RGRKSPANLVG ([2Abz]RGRKSPANLVG[Tyr(3-NO2)]-NH2) [LNK034] | 100
* RGRKVANLVG ([2Abz]RGRKVANLVG[Tyr(3-NO2)]-NH2) [LNK031] | 100
* SGRVAPQPLVD (not fully specified (N-terminus, C-terminus)) [LNK046] | 92
* RGRKPY-Nle-LQG ([2Abz]RGRKPY[Nle]LQG[Tyr(3-NO2)]-NH2) [LNK036] | 100
* RGRKSQPLVD ([2Abz]RGRKSQPLVD[Tyr(3-NO2)]-NH2) [LNK041] | 1
* RGRKPYMLQG ([2Abz]RGRKPYMLQG[Tyr(3-NO2)]-NH2) [LNK035] | 100
* RGRKSPQPLVD ([2Abz]RGRKSPQPLVD[Tyr(3-NO2)]-NH2) [LNK040] | 89
